experiment: Half life in Sprague-Dawley rat liver microsomes by HPLC analysis in presence of NADPH-regenerating system; assay type: ADME

{"compound": "COc1ccc(C2=NO[C@@]3(C(=O)Nc4cc(Br)ccc43)[C@@H]2c2ccccc2)cc1 (relative stereo)", "half-life [min]": 217}
{"compound": "COc1ccc(C2=NO[C@@]3(C(=O)Nc4cc(Cl)ccc43)[C@@H]2c2ccccc2)cc1 (relative stereo)", "half-life [min]": 189}

* * *

system: SW-620; assay: Antiproliferative activity against human SW620 cells expressing p53 mutant after 24 hrs by MTS assay; type: functional; conditions: SW-620, 24 h
Threshold-based label: GI50 under 40 µM gives t, GI50 not under 40 µM gives f.

{"compound": "O=C1Nc2cc(Cl)ccc2[C@]12ON=C(c1ccccc1)[C@H]2c1ccccc1 (relative stereo)", "group": "f"}
{"compound": "O=C1Nc2cc(Cl)ccc2[C@]12ON=C(c1ccc([N+](=O)[O-])cc1)[C@H]2c1ccccc1 (relative stereo)", "group": "t"}
{"compound": "COc1ccccc1C1=NO[C@@]2(C(=O)Nc3cc(Cl)ccc32)[C@@H]1c1ccccc1 (relative stereo)", "group": "t"}
{"compound": "COc1ccc(C2=NO[C@@]3(C(=O)Nc4cc(Cl)ccc43)[C@@H]2c2ccccc2)cc1 (relative stereo)", "group": "f"}
{"compound": "Cc1ccc(C2=NO[C@@]3(C(=O)Nc4cc(Cl)ccc43)[C@@H]2c2ccccc2)cc1 (relative stereo)", "group": "t"}
